- Assayed Target: XIAP BIR3 (Homo sapiens, UniProt P98170)
- Test Summary: Biotinylated BIR3 XIAP domain Alphascreen assay
- Design: biotinylated XIAP BIR3; biotin (biotinylated)
- Condition Context: biotinylated XIAP BIR3, FITC-labeled IAP-binding molecule, Streptavidin Donor / Anti-FITC Acceptor Beads, incubation 2 hours; concentration reducing alphascreen signal to half of maximum
- Sequence (P98170 241-356 limits assumed): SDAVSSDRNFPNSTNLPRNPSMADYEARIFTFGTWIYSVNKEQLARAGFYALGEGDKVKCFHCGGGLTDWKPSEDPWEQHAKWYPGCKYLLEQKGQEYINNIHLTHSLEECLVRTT
pIC50: −log10 of the molar value.
Measured Attribute: pIC50

# get_value(readout='pIC50', item= CC(N)c1ccc(C(=O)N2C[C@@H](c3ccccc3)C[C@H]2C(=O)N2CC[C@H](c3ccccc3)C2)o1 (stereo partly shown) )
7.00 to 10.00

====

- Assayed Target: XIAP BIR3 (Homo sapiens, UniProt P98170)
- Test Summary: HIS-tagged BIR3 XIAP domain Alphascreen assay
- Design: HIS-tagged XIAP BIR3 (RnD systems); purchased RnD systems
- Condition Context: HIS-tagged XIAP BIR3 (RnD systems), biotin-labeled IAP-binding molecule, Streptavidin Donor / Ni-NTA Acceptor Beads, incubation 2 hours; concentration reducing alphascreen signal to half of maximum
- Sequence (P98170 252-356 limits assumed): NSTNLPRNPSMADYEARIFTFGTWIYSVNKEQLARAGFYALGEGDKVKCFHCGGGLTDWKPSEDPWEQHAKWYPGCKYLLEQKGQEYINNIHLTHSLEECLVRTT
Quick reference: IC50 of the listed items.

# get_value(readout='IC50', item= O=C(N[C@H](C(=O)N[C@@H]1CCc2ccccc21)C1CCCCC1)C1CC2(CCNCC2)CN1 (stereo partly shown) )
100 to 1000 nM

====

- Assayed Target: XIAP BIR3 (Homo sapiens, UniProt P98170)
- Test Summary: HIS-tagged BIR3 XIAP domain Alphascreen assay
- Set-up: HIS-tagged XIAP BIR3 (RnD systems); purchased RnD systems
- Condition Context: HIS-tagged XIAP BIR3 (RnD systems), biotin-labeled IAP-binding molecule, Streptavidin Donor / Ni-NTA Acceptor Beads, incubation 2 hours; concentration reducing alphascreen signal to half of maximum
pIC50: −log10 of the molar value.
Measured Attribute: pIC50

Some entries whose results are on file:
[
  {
    "Molecule": "CNC(C)c1cccc(C(=O)N2C[C@@H](c3ccccc3)C[C@H]2C(=O)N2CC[C@H](c3ccccc3)C2)c1 (stereo partly drawn) [Example 3]",
    "Result": "6.00 to 7.00"
  },
  {
    "Molecule": "O=C(N[C@@H]1CCc2ccccc21)[C@@H]1C[C@@H](C2CCCCC2)CN1C(=O)C1CC2(CCNCC2)CN1 (stereo partly drawn) [Example 13]",
    "Result": "6.00 to 7.00"
  }
]

Now consider a different molecule.
Notebook entry, XIAP BIR3 (Homo sapiens, UniProt P98170) assay: pIC50 of CNC(C)c1ccc(C(=O)N2C[C@@H](c3ccccc3)C[C@H]2C(=O)N2CC[C@H](c3ccccc3)C2)o1 (stereo partly drawn) [Example 1] = ?
7.00 to 10.00

====

- Assayed Target: XIAP BIR3 (Homo sapiens)
- Test Summary: Biotinylated BIR3 XIAP domain Alphascreen assay
- Design: biotinylated XIAP BIR3; biotin (biotinylated)
- Condition Context: biotinylated XIAP BIR3, FITC-labeled IAP-binding molecule, Streptavidin Donor / Anti-FITC Acceptor Beads, incubation 2 hours; concentration reducing alphascreen signal to half of maximum
pIC50: −log10 of the molar value. Where a SMILES comes first, the peptide text is derived from it. [ ]: non-standard residue; d: D form. Pro(cis-4-Ph) = O=C(O)[C@@H]1C[C@H](c2ccccc2)CN1; Ala(2-furyl) = N[C@@H](Cc1ccco1)C(=O)O
Measured Attribute: pIC50

Some entries whose results are on file:
[
  {
    "Compound": "C[C@H](N)C(=O)N[C@@H](Cc1cccc(C#N)c1)C(=O)N1C[C@@H](c2ccccc2)C[C@H]1C(=O)N[C@@H]1CCc2ccccc21",
    "pIC50": "7.00 to 10.00"
  },
  {
    "Compound": "C[C@H](N)C(=O)N[C@@H](Cc1cccc(C(N)=O)c1)C(=O)N1CC(c2ccccc2)C1C(=O)N[C@@H]1CCc2ccccc21 (some centres unmarked)",
    "pIC50": "7.00 to 10.00"
  },
  {
    "Compound": "CNC(=O)[C@@H]1C[C@H](c2ccccc2)CN1C(=O)[C@@H]1C[C@H](c2ccccc2)CN1C(=O)C(Cn1cncn1)NC(=O)[C@H](C)N (some centres unmarked)",
    "pIC50": "7.00 to 10.00"
  },
  {
    "Compound": "C[C@@H](N)C(=O)N[C@@H](Cc1cccc(C(N)=O)c1)C(=O)N1C[C@@H](c2ccccc2)C[C@H]1C(=O)N[C@@H]1CCc2ccccc21",
    "pIC50": "7.00 to 10.00"
  },
  {
    "Compound": "CNC(=O)[C@@H]1C[C@H](c2ccccc2)CN1C(=O)[C@@H]1C[C@H](c2ccccc2)CN1C(=O)[C@H](Cc1ccco1)NC(=O)[C@H](C)N [Example 15] (H-A[Ala(2-furyl)][Pro(cis-4-Ph)][Pro(cis-4-Ph)]-NHMe)",
    "pIC50": "7.00 to 10.00"
  }
]

# get_value(readout='pIC50', item= CC[C@H](NC)C(=O)N[C@@H](Cc1cccc(C#N)c1)C(=O)N1C[C@@H](c2ccccc2)C[C@H]1CN1CC[C@H](c2ccccc2)C1 )
7.00 to 10.00

# get_value(readout='pIC50', item= C[C@H](N)C(=O)N[C@@H](Cc1cccc(C(N)=O)c1)C(=O)N1CC(C(=O)NC2CCc3ccccc32)C1c1ccccc1 (stereo in doubt) )
7.00 to 10.00

# get_value(readout='pIC50', item= CC(N)c1cccc(C(=O)N2C[C@@H](c3ccccc3)C[C@H]2C(=O)N2CC[C@H](c3ccccc3)C2)c1 (some centres unmarked) )
6.00 to 7.00
